Test system: Erythrocyte
Test: Hemolytic activity in human erythrocytes incubated for 1 hr by ELISA reader analysis
Type: toxicity, cell-based
Square brackets hold non-standard residues; d marks the D form. Peptide text beside a SMILES is read from it. 2Nal = N[C@@H](Cc1ccc2ccccc2c1)C(=O)O
HC10 reference

Known results for compounds:
CC[C@H](C)[C@H](NC(=O)[C@H](CCCNC(=N)N)NC(=O)[C@H](CCCCN)NC(=O)[C@H](CC(C)C)NC(=O)[C@H](CC(C)C)NC(=O)CN)C(=O)N[C@@H](CCCCN)C(=O)N[C@@H](CO)C(=O)N[C@@H](CC(C)C)C(=O)N[C@@H](CC(C)C)C(N)=O (H-GLLKRIKSLL-NH2) ... > 500 µM
CC[C@H](C)[C@H](NC(=O)[C@H](CCCNC(=N)N)NC(=O)[C@@H](NC(=O)[C@H](CC(C)C)NC(=O)[C@H](CC(C)C)NC(=O)CN)[C@@H](C)O)C(=O)N[C@@H](CCCCN)C(=O)N[C@H](C(=O)N[C@@H](CC(C)C)C(=O)N[C@@H](CC(C)C)C(N)=O)[C@@H](C)O (H-GLLTRIKTLL-NH2) ... > 500 µM

Here is another compound to look at.
Record lookup: for Erythrocyte, what HC10 belongs to CC(C)C[C@H](NC(=O)[C@H](C)NC(=O)CN)C(=O)N[C@@H](CCCCN)C(=O)N[C@@H](CCCNC(=N)N)C(=O)N[C@@H](Cc1ccc2ccccc2c1)C(=O)N[C@@H](CCCCN)C(=O)N[C@H](C(=O)N[C@@H](CC(C)C)C(=O)N[C@@H](C)C(N)=O)[C@@H](C)O (H-GALKR[2Nal]KTLA-NH2) ? > 500 µM
